Tested on: NCI-H23 lung
ASSAY COMMENT: NCI tumour cell line growth inhibition, 48 h
Starred links: 1 amine or outer side, 2 acyl side, 3 side chain; linkers in the order of their positions; H or OH if unused. Positions of bridges follow the written chain, without caps; N, C: chain ends. Where a SMILES comes first, the peptide text is derived from it. Non-standard residues stand in square brackets, D forms with d. Residues, ends and D or L forms follow the SMILES beside them. Bridges are numbered along the chain shown (N, C = ends). *: point of attachment. X3 = CC(C)C(C)C(C(=O)[*:2])N(C)[*:1]; Picolinoyl(3-OH) = O=C(c1ncccc1O)*; NMePhg = CN[CH](C(=O)O)c1ccccc1; Hyp = O=C(O)[CH]1C[CH](O)CN1; Sar = CNCC(=O)O
MEASURED ENDPOINT: TGI

>  <COMPOUND>
C=C1c2nc3ccccc3n2C=C(c2ccccc2)N1c1ccc(C)cc1

>  <MEASURED RESULT>
> 100 µM

$$$$
>  <COMPOUND>
O=C(NNC(=O)c1ccc(Cl)cc1NC(=O)C12CC3CC(CC(C3)C1)C2)c1ccc(Cl)cc1

>  <MEASURED RESULT>
> 100 µM

$$$$
>  <COMPOUND>
Cc1nc(Nc2ccc(Cl)cc2)sc1C(=O)Nc1cccc2c(=O)[nH][nH]c(=O)c12

>  <MEASURED RESULT>
40.5 µM

$$$$
>  <COMPOUND>
COc1cc(/C=C2\N=C(c3ccccc3)N(c3cc4cc(Sc5ccccc5)ccc4[nH]3)C2=O)ccc1O

>  <MEASURED RESULT>
> 50 µM

$$$$
>  <COMPOUND>
COC(=O)c1ccc(C)cc1C1CN=NC12Cc1cccc(C)c1C2=O (stereo not drawn)

>  <MEASURED RESULT>
> 100 µM

$$$$

// each compound listed below needs its TGI
1. CCOC(=O)C(Cc1cc(OC)c(CC(C(=O)OCC)C(=O)OCC)cc1OC)C(=O)OCC
2. COc1ccc(/C=C(\C#N)c2cc(OC)c(OC)c(OC)c2)cc1
3. C[C@@H]([C@H]1CC[C@@]2(C)[C@@H]3CC[C@@H]4C(=CC3=CC[C@]12C)CC[C@H](N(C)C)C4(C)C)N(C)C
4. COC1OC(C)/C(=N/O)C2OC(C)(C)OC12 (stereo not drawn)
5. CC(C)CC1NC(=O)C(NC(=O)c2ncccc2O)C(C)OC(=O)C(c2ccccc2)N(C)C(=O)C(C)NC(=O)C(C(C)C(C)C)N(C)C(=O)CN(C)C(=O)C2CC(O)CN2C1=O (stereo not drawn) ({Picolinoyl(3-OH)}-TL[Hyp][Sar][X3]A[NMePhg]; ester 1-C; configuration not given here)
6. COc1ccc(-c2c(/C=N/OCC(=O)O)c3sc4ccccc4n3c2/C=N/OCC(=O)O)cc1
7. Cc1cc2ccccc2n2c1nc1ccc(O)cc12

Result:
1: > 100 µM; 2: > 100 µM; 3: > 100 µM; 4: > 100 µM; 5: > 125 µM; 6: > 50 µM; 7: > 10 µM

// each compound listed below needs its TGI
1. COC(=O)C1CCC(=O)NCCCCC(NC(=O)C(N)CC(=O)O)C(=O)N1 (stereo not drawn) (H-Asp-Lys-Glu-OMe; lactam 2-3; configuration not given here)
2. COc1ccc(C(=O)c2ccccc2)c(O)c1
3. C/C(=N\Nc1nc2cc(F)ccc2s1)c1ccccn1
4. COc1ccc(C2=NNC(c3sc(Cl)nc3Cl)C2)cc1 (stereo not drawn)
5. O=C(CCC(NC(=O)OCc1ccccc1)C(=O)OCc1ccccc1)Nc1cccc(OCc2ccccc2)c1 (stereo not drawn)
6. CC(C)=CCNc1ncnc2c1ncn2CCC(=O)O

Result:
1: > 100 µM; 2: > 100 µM; 3: 2.23 µM; 4: 26.7 µM; 5: 57.1 µM; 6: > 100 µM
